activity coefficient listing for selected compounds.
Assay: activity coefficient (dimensionless); of the first substance listed, at infinite dilution; xn = mol fraction of the nth substance listed
Settings: 328.15 K; 101 kPa; Liquid; Chromatography; x1 = 0
Please reply with the value in numeric form only.

// query Tell me its activity coefficient given c1ccncc1 [pyridine] + COCC[N+]1(C)CCCCC1.O=S(=O)([N-]S(=O)(=O)C(F)(F)F)C(F)(F)F as the entry.
// result 0.555

// query Complete the entry with activity coefficient for CCCCCCCC [octane] + COCC[N+]1(C)CCCCC1.O=S(=O)([N-]S(=O)(=O)C(F)(F)F)C(F)(F)F
// result 32.6

// query Find the measured activity coefficient of Cc1ccccc1 [toluene] + COCC[N+]1(C)CCCCC1.O=S(=O)([N-]S(=O)(=O)C(F)(F)F)C(F)(F)F and report it.
// result 1.3

// query // fetch activity coefficient given entry Cc1ccc(C)cc1 [1,4-dimethylbenzene] + COCC[N+]1(C)CCCCC1.O=S(=O)([N-]S(=O)(=O)C(F)(F)F)C(F)(F)F
// result 1.1

* * *

Experiment: activity coefficient (dimensionless); of the first substance listed, at infinite dilution; xn = mol fraction of the nth substance listed
Details: 368.15 K; 101 kPa; Liquid; Chromatography; x1 = 0
Label 1 when activity coefficient is at or above 5; anything below gets -1.

Observe how each entry below is paired with its result.
{"compound": "Cc1ccccc1C [1,2-dimethylbenzene] + COCC[N+]1(C)CCCCC1.O=S(=O)([N-]S(=O)(=O)C(F)(F)F)C(F)(F)F", "class_name": -1}
{"compound": "C=CCCC [1-pentene] + COCC[N+]1(C)CCCCC1.O=S(=O)([N-]S(=O)(=O)C(F)(F)F)C(F)(F)F", "class_name": 1}
{"compound": "CCC(C)(C)OC [2-methoxy-2-methylbutane] + COCC[N+]1(C)CCCCC1.O=S(=O)([N-]S(=O)(=O)C(F)(F)F)C(F)(F)F", "class_name": -1}
{"compound": "CO [methanol] + COCC[N+]1(C)CCCCC1.O=S(=O)([N-]S(=O)(=O)C(F)(F)F)C(F)(F)F", "class_name": -1}
{"compound": "C1CCCCCC1 [cycloheptane] + COCC[N+]1(C)CCCCC1.O=S(=O)([N-]S(=O)(=O)C(F)(F)F)C(F)(F)F", "class_name": 1}
{"compound": "CCOCC [diethyl ether] + COCC[N+]1(C)CCCCC1.O=S(=O)([N-]S(=O)(=O)C(F)(F)F)C(F)(F)F", "class_name": -1}
{"compound": "COC(C)=O [methyl ethanoate] + COCC[N+]1(C)CCCCC1.O=S(=O)([N-]S(=O)(=O)C(F)(F)F)C(F)(F)F", "class_name": -1}
{"compound": "CC1CCCCC1 [methylcyclohexane] + COCC[N+]1(C)CCCCC1.O=S(=O)([N-]S(=O)(=O)C(F)(F)F)C(F)(F)F", "class_name": 1}

// query Threshold query (activity coefficient >= 5) on C=CCCCCCCCC [1-decene] + COCC[N+]1(C)CCCCC1.O=S(=O)([N-]S(=O)(=O)C(F)(F)F)C(F)(F)F
// result 1

// query Does the reported activity coefficient for CCOC(C)(C)C [2-ethoxy-2-methylpropane] + COCC[N+]1(C)CCCCC1.O=S(=O)([N-]S(=O)(=O)C(F)(F)F)C(F)(F)F fall at or above the 5 mark?
// result 1

// query Check if activity coefficient >= 5 (inclusive). Item: CC(C)OC(C)C [diisopropyl ether] + COCC[N+]1(C)CCCCC1.O=S(=O)([N-]S(=O)(=O)C(F)(F)F)C(F)(F)F
// result 1

// query Does CCC(C)CC [3-methylpentane] + COCC[N+]1(C)CCCCC1.O=S(=O)([N-]S(=O)(=O)C(F)(F)F)C(F)(F)F have a reported activity coefficient of at least 5?
// result 1

// query Please check the record CC(C)CO [2-methyl-1-propanol] + COCC[N+]1(C)CCCCC1.O=S(=O)([N-]S(=O)(=O)C(F)(F)F)C(F)(F)F and state if its activity coefficient is at or above 5.
// result -1

// query Determine whether this compound has activity coefficient no lower than 5: CC#N [acetonitrile] + COCC[N+]1(C)CCCCC1.O=S(=O)([N-]S(=O)(=O)C(F)(F)F)C(F)(F)F
// result -1

* * *

Test: activity coefficient (dimensionless); of the first substance listed, at infinite dilution; xn = mol fraction of the nth substance listed
Settings: 318.15 K; 101 kPa; Liquid; Chromatography; x1 = 0
Below, each entry is listed alongside its reported activity coefficient.
Give the value as a plain number.

Here's what some known entries look like.
{"molecule": "CC(C)O [propan-2-ol] + COCC[N+]1(C)CCCCC1.O=S(=O)([N-]S(=O)(=O)C(F)(F)F)C(F)(F)F", "quantity": "activity coefficient", "result_value": 1.92}
{"molecule": "C#CCCCCC [1-heptyne] + COCC[N+]1(C)CCCCC1.O=S(=O)([N-]S(=O)(=O)C(F)(F)F)C(F)(F)F", "quantity": "activity coefficient", "result_value": 4.22}
{"molecule": "O [water] + COCC[N+]1(C)CCCCC1.O=S(=O)([N-]S(=O)(=O)C(F)(F)F)C(F)(F)F", "quantity": "activity coefficient", "result_value": 3.35}

Then there is this molecule:
// query Input CCCCO [butan-1-ol] + COCC[N+]1(C)CCCCC1.O=S(=O)([N-]S(=O)(=O)C(F)(F)F)C(F)(F)F , output reported activity coefficient.
// result 2.72

* * *

Below, each entry is listed with its recorded activity coefficient.
Assay: activity coefficient (dimensionless); of the first substance listed, at infinite dilution; xn = mol fraction of the nth substance listed
Conditions: 368.15 K; 101 kPa; Liquid; Chromatography; x1 = 0
// return a plain number; no unit text

{"molecule": "CCCOCCC [dipropyl ether] + COCC[N+]1(C)CCCCC1.O=S(=O)([N-]S(=O)(=O)C(F)(F)F)C(F)(F)F", "result_value": 5.75}

// query Hello, please tell me recorded activity coefficient for this one: CCO [ethanol] + COCC[N+]1(C)CCCCC1.O=S(=O)([N-]S(=O)(=O)C(F)(F)F)C(F)(F)F
// result 1.16

// query Give activity coefficient for COC(C)(C)C [2-methoxy-2-methylpropane] + COCC[N+]1(C)CCCCC1.O=S(=O)([N-]S(=O)(=O)C(F)(F)F)C(F)(F)F
// result 2.73

// query Provide one value: measured activity coefficient of c1ccccc1 [benzene] + COCC[N+]1(C)CCCCC1.O=S(=O)([N-]S(=O)(=O)C(F)(F)F)C(F)(F)F
// result 0.961

// query Indicate its recorded activity coefficient; the molecule in question is c1ccncc1 [pyridine] + COCC[N+]1(C)CCCCC1.O=S(=O)([N-]S(=O)(=O)C(F)(F)F)C(F)(F)F
// result 0.583

// query Return value of activity coefficient for input CCCCC [pentane] + COCC[N+]1(C)CCCCC1.O=S(=O)([N-]S(=O)(=O)C(F)(F)F)C(F)(F)F , no commentary.
// result 9.48

// query Return value of activity coefficient for input C=CCCCCC [1-heptene] + COCC[N+]1(C)CCCCC1.O=S(=O)([N-]S(=O)(=O)C(F)(F)F)C(F)(F)F , no commentary.
// result 9.99

* * *

Each record here notes measured activity coefficient.
Test: activity coefficient (dimensionless); of the first substance listed, at infinite dilution; xn = mol fraction of the nth substance listed
Conditions: 328.15 K; 101 kPa; Liquid; Chromatography; x1 = 0
Would you mind answering with just the numeric figure?

{"compound": "CCCC(=O)OC [methyl butanoate] + COCC[N+]1(C)CCCCC1.O=S(=O)([N-]S(=O)(=O)C(F)(F)F)C(F)(F)F", "result_value": 1.23}
{"compound": "CCc1ccccc1 [ethylbenzene] + COCC[N+]1(C)CCCCC1.O=S(=O)([N-]S(=O)(=O)C(F)(F)F)C(F)(F)F", "result_value": 1.93}
{"compound": "CCC(C)O (stereo not given) [butan-2-ol] + COCC[N+]1(C)CCCCC1.O=S(=O)([N-]S(=O)(=O)C(F)(F)F)C(F)(F)F", "result_value": 2.07}
{"compound": "C#CCCCCC [1-heptyne] + COCC[N+]1(C)CCCCC1.O=S(=O)([N-]S(=O)(=O)C(F)(F)F)C(F)(F)F", "result_value": 4.21}
{"compound": "CCCC(C)=O [pentan-2-one] + COCC[N+]1(C)CCCCC1.O=S(=O)([N-]S(=O)(=O)C(F)(F)F)C(F)(F)F", "result_value": 0.801}
{"compound": "CCCCCCCCC [nonane] + COCC[N+]1(C)CCCCC1.O=S(=O)([N-]S(=O)(=O)C(F)(F)F)C(F)(F)F", "result_value": 46.3}
{"compound": "CC(C)(C)O [2-methylpropan-2-ol] + COCC[N+]1(C)CCCCC1.O=S(=O)([N-]S(=O)(=O)C(F)(F)F)C(F)(F)F", "result_value": 1.73}
{"compound": "CCCCCCCCCC [decane] + COCC[N+]1(C)CCCCC1.O=S(=O)([N-]S(=O)(=O)C(F)(F)F)C(F)(F)F", "result_value": 66.5}

// query Retrieve activity coefficient measured for C1COCCO1 [1,4-dioxane] + COCC[N+]1(C)CCCCC1.O=S(=O)([N-]S(=O)(=O)C(F)(F)F)C(F)(F)F and print it.
// result 0.636

// query Read off the recorded activity coefficient for CCC(=O)CC [pentan-3-one] + COCC[N+]1(C)CCCCC1.O=S(=O)([N-]S(=O)(=O)C(F)(F)F)C(F)(F)F
// result 0.801
